Entries and their measured Survival rate of cancer cells in primary screening follow.
System: SK-BR-3
Test: MTT primary screening of anticancer activity, SK-BR-3
Type: cell-based
Details: 25 µM pACP, 24 h, maintenance medium 1% FBS, ratio of viability to vehicle (PBS), at least three technical repetitions
Where no end group is shown, it is not given here.

Here are 2 sequences together with their reported answers.
residue.string | observed.value
KSLQMVLSFVIIFADKKKTLATLIVAKKKKGW [pACP1096] | 1.00
KGVRGKICKGKRCKQISNSGCDRQEIQEKQENRYRKEKQNKG [pACP886] | 1.00

Read the next record carefully.
Enquiry: Lab request: please report Survival rate of cancer cells in primary screening under test system SK-BR-3 for WWRRAERSVRRFFGTPIGPFPEIFGRRKAHKKKIIAKFDSVNG [pACP2283]
Return: 0.0341

Data origin, for the record: paper PMC10477861
